# System: RARg homodimer (NR concentration 270 nM)
# assay_protocol: PBM binding z-score (relative to random genomic background probes); higher = stronger binding; sequences stand for … in GC…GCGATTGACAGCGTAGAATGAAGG
reported_property: PBM binding z-score

| residue_codes | tested_target | reported_property | reported_measurement |
| --- | --- | --- | --- |
| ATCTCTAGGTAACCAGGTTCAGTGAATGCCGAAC | RARg homodimer (NR concentration 270 nM) | PBM binding z-score | 0.267 |
| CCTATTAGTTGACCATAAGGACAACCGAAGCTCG | RARg homodimer (NR concentration 270 nM) | PBM binding z-score | 1.28 |
| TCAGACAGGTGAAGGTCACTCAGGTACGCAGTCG | RARg homodimer (NR concentration 270 nM) | PBM binding z-score | 4.11 |
| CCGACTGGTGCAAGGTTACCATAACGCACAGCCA | RARg homodimer (NR concentration 270 nM) | PBM binding z-score | 0.421 |
| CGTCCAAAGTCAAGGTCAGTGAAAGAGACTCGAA | RARg homodimer (NR concentration 270 nM) | PBM binding z-score | 3.58 |
| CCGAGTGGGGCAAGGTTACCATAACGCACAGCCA | RARg homodimer (NR concentration 270 nM) | PBM binding z-score | 1.2 |

====

# Test system: RARg homodimer (NR concentration 270 nM)
# assay_protocol: PBM binding z-score (relative to random genomic background probes); higher = stronger binding; sequences stand for … in GC…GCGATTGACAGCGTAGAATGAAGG
Category scheme (PBM binding z-score): lower range = under 0.9, middle range = from 0.9 up to 3, upper range = 3 and over

| residue_codes | assigned_label |
| --- | --- |
| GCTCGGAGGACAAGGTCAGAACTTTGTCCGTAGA | upper range |
| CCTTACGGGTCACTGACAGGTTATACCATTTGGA | upper range |
| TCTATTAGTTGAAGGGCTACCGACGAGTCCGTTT | lower range |
| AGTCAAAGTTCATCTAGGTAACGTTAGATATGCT | upper range |
| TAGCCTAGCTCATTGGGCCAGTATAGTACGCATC | lower range |
| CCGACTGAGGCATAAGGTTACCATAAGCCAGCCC | lower range |
| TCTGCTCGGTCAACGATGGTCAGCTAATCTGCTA | middle range |
| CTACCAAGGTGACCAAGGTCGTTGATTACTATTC | middle range |
| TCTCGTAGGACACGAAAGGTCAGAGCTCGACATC | upper range |
| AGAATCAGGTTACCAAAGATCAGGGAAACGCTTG | middle range |
| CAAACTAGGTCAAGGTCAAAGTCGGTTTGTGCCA | upper range |
| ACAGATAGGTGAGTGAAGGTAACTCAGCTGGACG | lower range |
| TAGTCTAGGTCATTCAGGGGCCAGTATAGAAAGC | upper range |
| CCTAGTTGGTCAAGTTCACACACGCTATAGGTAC | middle range |
| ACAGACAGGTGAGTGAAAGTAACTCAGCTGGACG | lower range |
| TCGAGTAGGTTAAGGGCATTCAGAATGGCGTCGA | middle range |
| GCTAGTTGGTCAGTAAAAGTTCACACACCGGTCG | middle range |
| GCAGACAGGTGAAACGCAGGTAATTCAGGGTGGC | lower range |
| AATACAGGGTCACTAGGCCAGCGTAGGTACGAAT | upper range |
| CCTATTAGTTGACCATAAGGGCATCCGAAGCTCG | middle range |
| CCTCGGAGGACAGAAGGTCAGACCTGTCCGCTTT | upper range |
| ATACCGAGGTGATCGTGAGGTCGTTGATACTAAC | lower range |
| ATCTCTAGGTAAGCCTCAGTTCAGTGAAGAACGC | lower range |
| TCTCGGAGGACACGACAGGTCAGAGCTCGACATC | upper range |
| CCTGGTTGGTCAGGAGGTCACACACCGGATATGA | upper range |
| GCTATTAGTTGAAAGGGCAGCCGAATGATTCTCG | lower range |

====

# System: RARa homodimer (NR concentration 270 nM)
# assay_protocol: PBM binding z-score (relative to random genomic background probes); higher = stronger binding; sequences stand for … in GC…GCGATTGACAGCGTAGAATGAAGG
Decide by PBM binding z-score: equal to or exceeding 0.4 means Satisfied, less means Not satisfied.

| residue_codes | assigned_label |
| --- | --- |
| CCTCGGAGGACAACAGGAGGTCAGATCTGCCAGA | Not satisfied |
| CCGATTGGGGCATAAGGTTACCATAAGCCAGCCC | Not satisfied |
| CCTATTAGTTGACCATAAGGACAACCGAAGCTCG | Satisfied |
| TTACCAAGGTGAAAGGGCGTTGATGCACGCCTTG | Not satisfied |
| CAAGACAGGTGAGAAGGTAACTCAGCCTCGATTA | Not satisfied |
| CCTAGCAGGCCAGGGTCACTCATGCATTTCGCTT | Not satisfied |
| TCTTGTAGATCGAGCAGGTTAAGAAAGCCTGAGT | Not satisfied |
| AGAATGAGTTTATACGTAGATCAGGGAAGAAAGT | Not satisfied |
| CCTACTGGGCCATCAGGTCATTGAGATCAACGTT | Not satisfied |
| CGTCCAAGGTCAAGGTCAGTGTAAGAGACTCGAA | Satisfied |
| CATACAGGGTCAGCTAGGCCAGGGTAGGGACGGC | Satisfied |
| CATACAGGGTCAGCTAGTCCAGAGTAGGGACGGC | Satisfied |
| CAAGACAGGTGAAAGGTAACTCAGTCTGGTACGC | Not satisfied |
| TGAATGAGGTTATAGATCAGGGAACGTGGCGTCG | Satisfied |
| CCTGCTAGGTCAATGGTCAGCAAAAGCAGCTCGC | Not satisfied |
| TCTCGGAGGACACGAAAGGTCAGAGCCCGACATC | Satisfied |
| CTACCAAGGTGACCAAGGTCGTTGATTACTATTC | Not satisfied |
| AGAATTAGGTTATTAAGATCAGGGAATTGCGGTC | Satisfied |
| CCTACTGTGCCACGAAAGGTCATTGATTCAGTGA | Satisfied |
| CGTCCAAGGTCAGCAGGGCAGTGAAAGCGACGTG | Satisfied |
| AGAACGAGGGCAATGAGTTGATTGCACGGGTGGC | Not satisfied |
| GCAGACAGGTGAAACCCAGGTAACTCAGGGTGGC | Not satisfied |
| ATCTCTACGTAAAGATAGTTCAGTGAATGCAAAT | Not satisfied |
| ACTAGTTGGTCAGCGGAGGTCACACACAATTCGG | Satisfied |
| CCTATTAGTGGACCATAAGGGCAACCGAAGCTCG | Satisfied |
| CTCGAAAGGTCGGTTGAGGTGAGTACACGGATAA | Not satisfied |
| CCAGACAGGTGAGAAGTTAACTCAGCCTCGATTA | Satisfied |
| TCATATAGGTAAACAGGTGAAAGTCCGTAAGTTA | Satisfied |
| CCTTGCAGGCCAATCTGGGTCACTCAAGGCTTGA | Not satisfied |
| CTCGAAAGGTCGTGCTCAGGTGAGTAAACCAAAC | Not satisfied |
| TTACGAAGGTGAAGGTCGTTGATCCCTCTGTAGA | Not satisfied |
| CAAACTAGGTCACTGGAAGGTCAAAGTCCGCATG | Satisfied |
| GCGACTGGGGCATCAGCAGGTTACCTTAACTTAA | Not satisfied |
| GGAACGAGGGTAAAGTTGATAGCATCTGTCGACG | Not satisfied |
| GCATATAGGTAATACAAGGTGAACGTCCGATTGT | Satisfied |
| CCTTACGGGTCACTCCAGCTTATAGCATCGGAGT | Satisfied |
| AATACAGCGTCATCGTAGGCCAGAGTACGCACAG | Not satisfied |
| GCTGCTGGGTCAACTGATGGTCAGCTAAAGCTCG | Not satisfied |
| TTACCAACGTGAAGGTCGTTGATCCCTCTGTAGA | Not satisfied |
| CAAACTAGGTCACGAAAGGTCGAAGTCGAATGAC | Satisfied |
| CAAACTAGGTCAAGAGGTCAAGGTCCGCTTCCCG | Satisfied |
| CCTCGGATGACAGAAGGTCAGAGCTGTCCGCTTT | Satisfied |
| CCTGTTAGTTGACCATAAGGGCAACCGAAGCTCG | Satisfied |
| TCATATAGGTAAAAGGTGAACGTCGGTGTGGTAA | Satisfied |
| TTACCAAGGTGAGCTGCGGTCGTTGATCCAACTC | Not satisfied |
| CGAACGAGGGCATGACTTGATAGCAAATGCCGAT | Not satisfied |
| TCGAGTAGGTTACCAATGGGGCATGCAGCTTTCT | Not satisfied |
| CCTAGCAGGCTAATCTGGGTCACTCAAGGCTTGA | Not satisfied |
| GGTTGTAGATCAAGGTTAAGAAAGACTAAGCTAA | Satisfied |
| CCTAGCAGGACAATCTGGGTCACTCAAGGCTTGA | Not satisfied |
